target: CRBN/DDB1 (Homo sapiens (Human)); assay: HTRF binding assay to CRBN/DDB1; conditions: read-out: CRBN HTRF IC50
Sequence (Q96SW2 whole entry): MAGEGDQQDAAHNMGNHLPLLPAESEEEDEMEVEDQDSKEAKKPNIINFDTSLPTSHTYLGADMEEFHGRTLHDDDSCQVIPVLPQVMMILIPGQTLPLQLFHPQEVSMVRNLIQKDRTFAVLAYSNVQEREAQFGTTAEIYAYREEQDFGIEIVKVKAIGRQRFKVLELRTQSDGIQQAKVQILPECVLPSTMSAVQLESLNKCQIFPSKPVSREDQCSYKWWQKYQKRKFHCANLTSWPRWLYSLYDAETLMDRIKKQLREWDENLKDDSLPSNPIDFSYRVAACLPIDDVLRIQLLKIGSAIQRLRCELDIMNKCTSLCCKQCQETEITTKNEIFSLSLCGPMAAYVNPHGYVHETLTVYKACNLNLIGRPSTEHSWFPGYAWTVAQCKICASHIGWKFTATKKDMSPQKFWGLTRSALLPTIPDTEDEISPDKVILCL
Sequence (Q16531 whole entry partner): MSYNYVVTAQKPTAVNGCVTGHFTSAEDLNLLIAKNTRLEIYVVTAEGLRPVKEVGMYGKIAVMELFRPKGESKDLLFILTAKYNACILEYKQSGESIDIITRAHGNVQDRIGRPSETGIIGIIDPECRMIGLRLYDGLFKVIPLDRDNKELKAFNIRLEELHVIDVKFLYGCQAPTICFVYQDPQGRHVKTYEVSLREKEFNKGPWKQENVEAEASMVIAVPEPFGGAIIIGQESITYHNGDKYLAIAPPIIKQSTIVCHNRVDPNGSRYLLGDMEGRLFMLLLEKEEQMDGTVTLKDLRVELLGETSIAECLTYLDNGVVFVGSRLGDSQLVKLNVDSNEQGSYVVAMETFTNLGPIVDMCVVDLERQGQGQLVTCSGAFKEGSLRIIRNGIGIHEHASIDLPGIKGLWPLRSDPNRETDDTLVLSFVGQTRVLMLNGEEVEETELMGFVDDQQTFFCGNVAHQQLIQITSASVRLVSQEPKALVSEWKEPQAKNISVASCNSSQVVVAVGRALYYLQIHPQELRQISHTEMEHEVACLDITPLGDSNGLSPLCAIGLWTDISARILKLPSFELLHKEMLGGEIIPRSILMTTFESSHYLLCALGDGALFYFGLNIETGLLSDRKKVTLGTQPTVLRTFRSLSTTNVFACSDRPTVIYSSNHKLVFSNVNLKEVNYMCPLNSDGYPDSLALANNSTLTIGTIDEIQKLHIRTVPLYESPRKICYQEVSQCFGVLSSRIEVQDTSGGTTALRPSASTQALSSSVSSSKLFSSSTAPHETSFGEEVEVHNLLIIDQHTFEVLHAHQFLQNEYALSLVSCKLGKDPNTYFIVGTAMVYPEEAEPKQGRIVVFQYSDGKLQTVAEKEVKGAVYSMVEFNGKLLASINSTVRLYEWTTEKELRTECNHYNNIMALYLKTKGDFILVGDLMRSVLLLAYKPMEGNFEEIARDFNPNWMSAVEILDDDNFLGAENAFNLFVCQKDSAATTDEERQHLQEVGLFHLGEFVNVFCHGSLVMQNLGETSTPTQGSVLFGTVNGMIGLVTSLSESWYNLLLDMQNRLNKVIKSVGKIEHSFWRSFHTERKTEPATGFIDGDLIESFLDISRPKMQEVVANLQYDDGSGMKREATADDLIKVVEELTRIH
pIC50: −log10 of the molar value.
Readout Type: pIC50

- Compound: "O=C1CCC(N2Cc3cc4c(cc3C2=O)OC[C@@H]2CN(CC3CC5(CCN(c6ccc([C@H]7c8ccc(O)cc8OC[C@H]7c7ccccc7)cc6)CC5)C3)CCN42)C(=O)N1 (single isomer, unassigned) [Compound A27]"
  pIC50: "5.30 to 6.30"

Now for the compound whose pIC50 we want.
[in] Return pIC50 measured with CRBN/DDB1 (Homo sapiens (Human)) given this compound: O=C1CCC(NC(=O)c2ccc(N3CCN(CC4CC5(CCN(c6ccc([C@@H]7c8ccc(O)cc8OC[C@@H]7c7ccccc7)cc6)CC5)C4)CC3)cn2)C(=O)N1 (some centres unmarked) [Compound A85]
[out] < 5.30

###

target: UniProt:P03372; assay: In-cell western (ICW) ER degradation assay in T47D cells; assay type: cell-based; conditions: maximal ER degradation, 16 hrs
Sequence (P03372 whole entry): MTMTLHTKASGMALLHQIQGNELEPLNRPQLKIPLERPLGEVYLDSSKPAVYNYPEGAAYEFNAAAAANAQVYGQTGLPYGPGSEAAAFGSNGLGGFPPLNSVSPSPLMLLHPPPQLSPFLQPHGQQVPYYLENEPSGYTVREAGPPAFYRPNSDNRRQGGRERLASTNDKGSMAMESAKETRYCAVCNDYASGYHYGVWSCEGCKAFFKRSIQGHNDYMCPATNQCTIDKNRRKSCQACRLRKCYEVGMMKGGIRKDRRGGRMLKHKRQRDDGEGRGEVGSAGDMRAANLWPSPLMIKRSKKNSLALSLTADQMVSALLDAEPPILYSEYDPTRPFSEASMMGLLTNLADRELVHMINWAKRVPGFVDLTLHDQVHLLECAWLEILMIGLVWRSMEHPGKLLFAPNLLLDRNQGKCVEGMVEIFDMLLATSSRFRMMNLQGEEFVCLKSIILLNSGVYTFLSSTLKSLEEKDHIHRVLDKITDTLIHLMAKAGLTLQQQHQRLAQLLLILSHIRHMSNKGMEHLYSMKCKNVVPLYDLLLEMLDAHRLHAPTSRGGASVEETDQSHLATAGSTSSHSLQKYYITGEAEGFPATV
Readout Type: Dmax

Solved cases (7 shown):
- Compound: "O=C1CCC(N2Cc3c(ccc4c3OCC43CCN(CC4COC5(CCN(c6ccc([C@H]7c8ccc(O)cc8OC[C@H]7c7ccccc7)cc6)CC5)C4)CC3)C2=O)C(=O)N1 (some centres unmarked) [Compound A146]"
  Measured Target: "UniProt:P03372"
  Dmax: "25 to 50%"
- Compound: "COc1cc(N2CCC(CN3CCN4c5ccc6c(c5OC[C@H]4C3)CN(C3CCC(=O)NC3=O)C6=O)CC2)c(F)cc1[C@H]1c2ccc(O)cc2OC[C@H]1c1ccccc1 (some centres unmarked) [Compound A105]"
  Measured Target: "UniProt:P03372"
  Dmax: "25 to 50%"
- Compound: "O=C1CC[C@@H](N2Cc3c(ccc4c3OC[C@@H]3CN(C[C@@H]5COC6(CCN(c7ccc([C@H]8c9ccc(O)cc9OC[C@H]8c8ccccc8)cc7)CC6)C5)CCN43)C2=O)C(=O)N1 (single isomer, unassigned) [Compound A132]"
  Measured Target: "UniProt:P03372"
  Dmax: "50 to 75%"
- Compound: "O=C1CCC(NC(=O)c2ccc3c(n2)OC[C@H]2CN(CC4CCN(c5ccc([C@@H]6c7ccc(O)cc7OC[C@@H]6c6ccccc6)cc5F)CC4)CCN32)C(=O)N1 (single isomer, unassigned) [Compound A104]"
  Measured Target: "UniProt:P03372"
  Dmax: "≥ 75%"
- Compound: "O=C1CC[C@@H](N2Cc3c(ccc4c3OCC43CCN(CC4CCC5(CC4)CN(c4ccc([C@H]6c7ccc(O)cc7OC[C@H]6c6ccccc6)cc4)C5)CC3)C2=O)C(=O)N1 [Compound A154]"
  Measured Target: "UniProt:P03372"
  Dmax: "≥ 75%"
- Compound: "O=C1CCC(N2Cc3cc4c(cc3C2=O)OCC42CCN(CC3CCN(c4ccc([C@@H]5c6ccc(O)cc6OC[C@@H]5c5ccccc5)cc4)CC3)CC2)C(=O)N1 (some centres unmarked) [Compound A86]"
  Measured Target: "UniProt:P03372"
  Dmax: "25 to 50%"
- Compound: "O=C1CCN(c2ccc(N3CCC4(CC3)CC(CN3CCN(c5ccc([C@H]6c7ccc(O)cc7OC[C@H]6c6ccccc6)cc5)CC3)C4)cc2)C(=O)N1 (single isomer, unassigned) [Compound A107]"
  Measured Target: "UniProt:P03372"
  Dmax: "25 to 50%"

Now for the compound whose Dmax we want.
[in] Please give the measured Dmax for this compound: COc1cc(N2CCC3(CC2)CC(CN2CCN4c5ccc6c(c5OC[C@@H]4C2)CN([C@@H]2CCC(=O)NC2=O)C6=O)C3)c(F)cc1[C@H]1c2ccc(O)cc2OC[C@H]1c1ccccc1 [Compound A126]
[out] 50 to 75%
